Data provenance: a protein production outcome set (Wang et al. 2014)

# assay: label from the status in PepcDB records
quantity-name: protein production

Would you please look over these solved cases?
INSERT INTO measurements (biosequence, quantity_name, test_result) VALUES
  ('MRGDDMHIYELVSRDRTHPVRIYLLHSEYWTEDEFYNLLLEAFQRSSASDWHLQILEVSKYLVTAHGFVEAGGLQEIGFPGELSKTEVRRRINAFLGKDRSD', 'protein production', 'not failed'),
  ('MGHHHHHHSHSLDSQKGQLVRGKVCEYSTDGAYIDIGGKAPAFLPKREAALHAVLDLEAHLPKDEELEFLVIRDQNEDGQVTVSLRALALEQAWTRVAELQEG', 'protein production', 'not failed'),
  ('MTPGSNIPLSAARVTVDVAAPVRLDVSGLLLTADGKVRSDDDFIFYNQPTGQGVTYRSGGGSAPDAIVVDTSAVPPGIEKIVVTASPDAAGQTFQGIEPTATIRNADDNAVLATFTPPQLGTETALVIVEVYLRNGAWKARAVGQGYSNGLAGIATDFGVTVEEPAAPATPPQPQAVTPPPPPAAAPTMPAAPPAPPAAPPAPAPGTGKINLDKGRVSLQKNQTVSLVKGGRPVLSQVKMGLGWEPAYRGKDIDLDASVIAYGPQRNHIDSCYFGKLSIVNGAIKHSGDNLTGEGGGDDEVIVVDLGRLPQEVSGLVFTVNSFSGQKFTEVAKAYCRLIDAASGEELVRFDLTSAEPQTGVMMAKLIRQYSGEWEMTAIGDFVKSRTVRGMVKPAAQAL', 'protein production', 'failed'),
  ('MKRKAFLALGFLALGLGVSQVGPFRARLEAAIQTGGEAFAQVMLSQDKAQALCTQYRDKLPPELVPAFLAEQRALIKYPASGKLMGDWKNGEKVFTDPKRGNCYACHQGDPREVAYGTMGPSLTGYGQRGLSEAVVRYTYEKIYNAWAFVPCSLMYRGGVHGYFTPEETADLVAYLLSPESPINRR', 'protein production', 'failed'),
  ('WRTIFNAEPECVMIVATDGTLLDINPAGVAAIEADSVGAVIGKRVYSLVVPECQQAFRQLNESVCQGKQGTLEFEIITCRGNRRWMATHAVPVRNEKDGNLVQLSI', 'protein production', 'failed');

Qu. Param item = IRTHLNLPSDKKVIMYAPTWRDDEFVSKGKYLFELKIDLDNLYKELGDDYVILLRMHYLISNALDLSGYENFAIDVSNYNDVSELFLISDCLITDYSSVMFDYGILKRPQFFFAYDIDKYDKGLRGFYMNYMEDLPGPIYTEPYGLAKELKNLDKVQQQYQEKIDAFYDRFCSVDNGKASQYIGDLIHKDIKEQ ; retrieve measured protein production.
Ans. failed

Qu. protein production for MVFVWFIVAAIVTILTAIKLSNYADTIGEKSTLGGMLVGTIFLAGATSLPEITTTVSAIVLNNPDLAVGNVLGSNMFNLLILATLDLYFRRAQLFRGADTSHFFTASIGLLLAMVTLIAITLRLDVTLLGIGIDMLVLIVVYAFGMKLLSAVRNDPVPESQTIDQEDNRPVKKDVSLRHAMIGFAISAIVIMGAGTLLTVTGDEIAVVTGLGSSFVGSFLIAATTSLPEGVSVFVALRLKNINLALGSVLGSNLFNFLILGVSDILYRPGSIIAAISPVHQLTAAAVGILCLMTLYALLRPAEQSKRMYLMPSLVLIVFYFFSSYLIFVQ ?
Ans. failed
